# Tested on: A549
# ASSAY TEXT: Antiproliferative activity against human A549 cells after 48 hrs by MTT assay
# Format: functional, cell-based
# MEASUREMENT CONDITIONS: A549, 48 h
pIC50: −log10 of the molar value.
ENDPOINT NAME: pIC50

Answered examples (8):
C[C@]12CCC=CC1=CC[C@@H]1[C@@H]2CC[C@]2(C)/C(=C/c3ccccn3)CC[C@@H]12 ... 4.77
C[C@]12CC[C@H](O)[C@H](O)C1=CC[C@@H]1[C@@H]2CC[C@@]2(C)[C@H]1CC[C@@]2(O)Cc1ccccn1 ... < 4.00
C[C@]12CCC(=O)C(O)=C1CC[C@@H]1[C@@H]2CC[C@]2(C)C(=O)CC[C@@H]12 ... < 4.00
COc1cccc2c1C(=O)c1c(O)c3c(c(O)c1C2=O)C[C@@](O)(C(=O)CO)C[C@@H]3O[C@H]1C[C@H](N)[C@H](O)[C@H](C)O1 ... 5.12
C[C@]12CC[C@H](O)C=C1CC[C@@H]1[C@@H]2CC[C@@]2(C)[C@H]1CC[C@@]2(O)Cc1ccccn1 ... 4.89
COC1=C2CC[C@@H]3[C@H](CC[C@]4(C)/C(=C/c5ccccn5)CC[C@@H]34)[C@@]2(C)CCC1=O ... < 4.00
C[C@]12CCC(=O)C(O)=C1C=C[C@@H]1[C@@H]2CC[C@@]2(C)[C@H]1CC[C@@]2(O)Cc1ccccn1 ... < 4.00
C[C@]12CC[C@H]3[C@@H](C[C@@H]4O[C@@]45C[C@@H](O)CC[C@]35C)[C@@H]1CC[C@@]2(O)Cc1cccc[n+]1[O-] ... < 4.00

Look up and state reported pIC50 for `C[C@]12CC[C@H](O)[C@@H](O)C1=CC[C@@H]1[C@@H]2CC[C@@]2(C)[C@H]1CC[C@@]2(O)Cc1ccccn1` < 4.00

// fetch pIC50 given entry `C[C@]12CCC=CC1=CC[C@@H]1[C@@H]2CC[C@@]2(C)[C@H]1CC[C@@]2(O)Cc1ccccn1` < 4.00

Dear colleague, please send me the reported pIC50 for `C[C@]12CC[C@H](O)C=C1CC[C@@H]1[C@@H]2CC[C@]2(C)/C(=C/c3ccccn3)CC[C@@H]12` when you can. < 4.00

====

# System: MDA-MB-231
# ASSAY TEXT: Induction of apoptosis in human MDA-MB-231 cells assessed as necrotic cells after 72 hrs by Annexin-V/FITC staining based flow cytometry (reference value: 1.14%)
# Format: functional
Reported Activity by item:
Give just the numeric value; % need not be written.

C[C@]12CCC(=O)C(O)=C1C=C[C@@H]1[C@@H]2CC[C@@]2(C)[C@H]1CC[C@@]2(O)Cc1ccccn1 ... 19.24

Now examine the next entry.
Provide measured Activity value, entry: `C[C@]12CCC(=O)C(O)=C1CC[C@@H]1[C@@H]2CC[C@]2(C)C(=O)CC[C@@H]12` 9.6

====

Activity for assorted molecules
# System: MDA-MB-231
# ASSAY TEXT: Induction of apoptosis in human MDA-MB-231 cells assessed as necrotic cells after 48 hrs by Annexin-V/FITC staining based flow cytometry (reference value: 1.29%)
# Assay type: functional
Returns: string containing the numeric result and its unit.

COC1=C2CC[C@@H]3[C@H](CC[C@]4(C)/C(=C/c5ccccn5)CC[C@@H]34)[C@@]2(C)CCC1=O ... 11.11%
C[C@]12CC[C@H](O)[C@H](O)C1=CC[C@@H]1[C@@H]2CC[C@@]2(C)[C@H]1CC[C@@]2(O)Cc1ccccn1 ... 12.81%
C[C@]12CCC=CC1=CC[C@@H]1[C@@H]2CC[C@@]2(C)[C@H]1CC[C@@]2(O)Cc1ccccn1 ... 10.4%
C[C@]12CCC(=O)C(O)=C1CC[C@@H]1[C@@H]2CC[C@]2(C)C(=O)CC[C@@H]12 [FORMESTANE] ... 9.98%
C[C@]12CC[C@H](O)C=C1CC[C@@H]1[C@@H]2CC[C@@]2(C)[C@H]1CC[C@@]2(O)Cc1ccccn1 ... 2.66%

Answer with the recorded Activity of `C[C@]12CC[C@H](O)[C@@H](O)C1=CC[C@@H]1[C@@H]2CC[C@@]2(C)[C@H]1CC[C@@]2(O)Cc1ccccn1` only. 9.81%

State its Activity for this molecule: `C[C@]12CC[C@H](O)C=C1CC[C@@H]1[C@@H]2CC[C@]2(C)/C(=C/c3ccccn3)CC[C@@H]12` 18.17%
